- target-under-test: T1, COVID S1 RBD Fc fusion (Antigen 1) (SARS-CoV-2, UniProt P0DTC2 319-541)
- T1 construct: domain: RBD
- assay-details: phage ELISA
specificity ELISA, percent binding relative to Acro S1 values for the binders below.
# number then unit; no other words

Worked examples, 2 binders total:
[
  {
    "binder": "SARS-CoV-2 variant 1-38 (antibody, V domains shown) VH: EVQLLESGGGLVQPGGSLRLSCAASGITFSSYAMSWVRQAPGKGLEWVSGISGSGGSTYYADSVKGRFTISRDNSKNTLYLQMNSLRAEDTAVYYCAKHGSGTIFGVVIAKYYFDYWGQGTLVTVSS VL: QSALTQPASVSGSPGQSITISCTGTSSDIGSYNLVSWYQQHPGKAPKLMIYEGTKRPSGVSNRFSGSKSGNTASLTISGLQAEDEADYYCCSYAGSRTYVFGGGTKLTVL",
    "result": "128%"
  },
  {
    "binder": "SARS-CoV-2 variant 1-7 (antibody, V domains shown) VH: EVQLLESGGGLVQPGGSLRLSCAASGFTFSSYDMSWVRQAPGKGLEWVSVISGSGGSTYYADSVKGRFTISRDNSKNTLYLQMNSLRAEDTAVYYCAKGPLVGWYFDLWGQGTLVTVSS VL: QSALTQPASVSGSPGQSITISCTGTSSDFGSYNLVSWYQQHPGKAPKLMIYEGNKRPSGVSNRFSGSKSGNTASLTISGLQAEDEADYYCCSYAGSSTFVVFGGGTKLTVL",
    "result": "48.7%"
  }
]

Kindly consider the entry below.
input: Reported specificity ELISA, percent binding relative to Acro S1, binder SARS-CoV-2 variant 1-23 (antibody, V domains shown) VH: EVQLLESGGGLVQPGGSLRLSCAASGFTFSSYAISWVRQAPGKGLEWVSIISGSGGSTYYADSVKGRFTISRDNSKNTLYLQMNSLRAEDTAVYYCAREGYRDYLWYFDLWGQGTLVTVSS VL: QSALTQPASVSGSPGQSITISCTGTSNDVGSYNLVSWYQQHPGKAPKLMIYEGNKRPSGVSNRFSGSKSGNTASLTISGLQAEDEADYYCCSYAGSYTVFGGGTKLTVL : ____
output: 70.9%
